Each recorded value in this set is attributed to patent US20180251562A1.

Target: T1, cynomolgus insulin receptor (INSR) on CHOK1 cells (cyno, UniProt A0A7N9D6H3 48-1390)
T1 construct: whole, on cells; CHOK1 cells over-expressing cyno INSR; also called cynomologous INSR ortholog; monkey INSR
Experiment: flow cytometry on CHOK1 cells expressing the INSR ortholog; Fab, anti-human kappa FITC detection
property_label: EC50 (nM)
Express the result in nM but write the number alone.

Before answering, review these 3 worked examples.
>  <binder>
XPA.15.247.2.014 Fab (Fab, V domains shown, Fab; also called XPA.15.247.014) VH: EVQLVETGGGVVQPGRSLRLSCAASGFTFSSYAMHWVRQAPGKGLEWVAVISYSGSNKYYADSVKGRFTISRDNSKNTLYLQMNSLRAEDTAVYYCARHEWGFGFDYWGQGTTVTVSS VL: DVVMTQSPLSLPVTLGQPASISCRSSQSLVYGDGNTYLNWFQQRPGQSPRRLIYKVSKRDSGVPDRFSGSGSGTDFTLKISRVEAEDVGVYYCMQGTYWPMTFGGGTKLEIKR

>  <EC50, nM>
10.2

$$$$
>  <binder>
XPA.15.247.2.011 Fab (Fab, V domains shown, Fab; also called XPA.15.247.011) VH: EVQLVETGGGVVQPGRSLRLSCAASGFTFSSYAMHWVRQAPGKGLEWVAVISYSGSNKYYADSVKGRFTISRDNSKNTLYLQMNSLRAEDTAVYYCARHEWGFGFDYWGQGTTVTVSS VL: DVVMTQSPLSLPVTLGQPASISCRSSHSLVYGDGNTYLNWFHQRPGQSPRRLIYKVSNRDSGVPDRFAGSGSGTDFTLKISRVEADDFGVFYCMQGTHWPYTFGQGTKLEIKR

>  <EC50, nM>
17.2

$$$$
>  <binder>
XPA.15.247 Fab (Fab, V domains shown, Monomeric Fab; also called Fab247; XPA.15.247 parent Fab) VH: EVQLVETGGGVVQPGRSLRLSCAASGFTFSSYAMHWVRQAPGKGLEWVAVISYDGSNKYYADSVKGRFTISRDNSKNTLYLQMNSLRAEDTAVYYCARHEWGFGMDVWGQGTTVTVSS VL: DVVMTQSPLSLSVTLGQPASISCRSSLSLVYGDENTYLNWFQQRPGQSPRRLLYKVSDRDSGVPDRFSGSGSGTDFTLKISRVEADDVGVYYCMQGTHWPYTFGQGTKLEIKR

>  <EC50, nM>
93

$$$$

// below: EC50 requested for another binder
(Q) What does the record list as EC50 for XPA.15.247.2.018 Fab (Fab, V domains shown, Monomeric Fab; also called XPA.247.2.018) VH: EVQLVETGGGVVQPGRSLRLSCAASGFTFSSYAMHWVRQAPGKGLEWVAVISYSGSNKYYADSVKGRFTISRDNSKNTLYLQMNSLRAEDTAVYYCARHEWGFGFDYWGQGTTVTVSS VL: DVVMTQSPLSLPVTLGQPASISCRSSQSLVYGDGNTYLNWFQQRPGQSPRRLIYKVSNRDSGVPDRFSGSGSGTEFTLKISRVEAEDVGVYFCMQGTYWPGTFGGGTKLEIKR ?
(A) 21.9
